Attribution: patent US11634384B2

target: TRPV receptor (Rattus norvegicus, UniProt O35433); construct: purchased Eurofins, Panlabs/Cerep 286810; experiment: biochemical; type: binding; settings: read-out: IC50
Sequence (O35433 whole entry): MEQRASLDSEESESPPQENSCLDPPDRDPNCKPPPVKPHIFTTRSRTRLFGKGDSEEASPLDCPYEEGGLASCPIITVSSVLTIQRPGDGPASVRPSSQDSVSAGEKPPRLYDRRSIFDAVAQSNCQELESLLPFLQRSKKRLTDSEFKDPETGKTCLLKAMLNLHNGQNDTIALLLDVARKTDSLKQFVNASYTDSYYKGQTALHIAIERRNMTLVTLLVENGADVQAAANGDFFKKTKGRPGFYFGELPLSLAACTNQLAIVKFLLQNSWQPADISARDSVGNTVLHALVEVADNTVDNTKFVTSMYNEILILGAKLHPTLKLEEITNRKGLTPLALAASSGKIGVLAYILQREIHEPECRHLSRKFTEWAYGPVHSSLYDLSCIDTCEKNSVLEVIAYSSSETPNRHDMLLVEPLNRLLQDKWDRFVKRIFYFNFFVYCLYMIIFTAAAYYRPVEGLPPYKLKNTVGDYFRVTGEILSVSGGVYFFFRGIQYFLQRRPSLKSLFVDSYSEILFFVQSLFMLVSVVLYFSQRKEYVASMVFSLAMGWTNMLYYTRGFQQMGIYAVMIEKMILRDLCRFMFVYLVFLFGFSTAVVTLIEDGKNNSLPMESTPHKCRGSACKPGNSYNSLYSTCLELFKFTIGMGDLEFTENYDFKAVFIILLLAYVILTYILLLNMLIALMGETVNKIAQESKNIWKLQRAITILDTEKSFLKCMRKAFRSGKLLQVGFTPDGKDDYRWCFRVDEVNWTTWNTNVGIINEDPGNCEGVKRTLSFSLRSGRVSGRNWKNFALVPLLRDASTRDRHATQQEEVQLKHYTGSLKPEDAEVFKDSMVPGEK
test-readout: IC50

Bench note: what IC50 did COc1cc(CNC(=O)CCCC/C=C/C(C)C)ccc1OC(=O)N1CCNCC1 show?
> 100 µM

---

assay: In vitro (pH stability) assay: intramolecular cyclization-release of capsaicin; format: physicochemical; settings: pH 7.4, pH = ~7.4 (0.3M aqueous tris buffer), 20° C.; conversion to capsaicin over 2 weeks; read-out: Intramolecular Cyclization-Release Half-life (T1/2)
test-readout: half-life at 2 weeks

So what's the measured half-life at 2 weeks for this one? COc1cc(CNC(=O)CCCC/C=C/C(C)C)ccc1OC(=O)N1CCNCC1
> 14 days
